Origin of the recorded values: patent US20060257938A1

Task for the reader: assign each of the following molecules its reported ΔR/DRAΔ2 LA.
Test: Probe fluorescence ratio response to linoleic acid relative to ADIFAB2
Assay type: binding
Settings: Table 4
Text: In an alternate preferred embodiment, the protein is rI-FABP that has Ala substituted for Leu at position 72 (rI-FABP-L72A) with the resulting probe named ADIFAB2. […] ADIFAB2 also has an altered spectral response, making it especially useful for measurements of FFAu in blood samples (Apple et al, Clinical Proteomics, (2004) 1:41-44, U.S. patent application Ser. No. 10/670,958). […] The baseline value for this ratio, measured in the absence of analyte, is designated R0. […]
Numbers only.

L1P9G10: FABP probe, substitutions L38I L72G vs SEQ ID NO: 2 (protein, listed as Rattus norvegicus, PEPTIDE (1)...(131) wild-type rat intestinal fatty acid binding protein) AFDGTWKVDRNENYEKFMEKMGINVVKRKLGAHDNLKITITQEGNKFTVKESSNFRNIDVVFELGVDFAYSGADGTELTGTWTMEGNKLVGKFKRVDNGKELIAVREISGNELIQTYTYEGVEAKRIFKKE
0.8
L1P8D4: FABP probe, substitutions Y14M L72M Y117A vs SEQ ID NO: 2 (protein, listed as Rattus norvegicus, PEPTIDE (1)...(131) wild-type rat intestinal fatty acid binding protein) AFDGTWKVDRNENMEKFMEKMGINVVKRKLGAHDNLKLTITQEGNKFTVKESSNFRNIDVVFELGVDFAYSMADGTELTGTWTMEGNKLVGKFKRVDNGKELIAVREISGNELIQTATYEGVEAKRIFKKE
2.0

Batch: ΔR/DRAΔ2 LA for all items listed.
1. L1P11F12: FABP probe, substitutions Y14L L38I vs SEQ ID NO: 2 (protein, listed as Rattus norvegicus, PEPTIDE (1)...(131) wild-type rat intestinal fatty acid binding protein) AFDGTWKVDRNENLEKFMEKMGINVVKRKLGAHDNLKITITQEGNKFTVKESSNFRNIDVVFELGVDFAYSLADGTELTGTWTMEGNKLVGKFKRVDNGKELIAVREISGNELIQTYTYEGVEAKRIFKKE
2. L1P16G10: FABP probe, substitutions Y14W L72M Y117A vs SEQ ID NO: 2 (protein, listed as Rattus norvegicus, PEPTIDE (1)...(131) wild-type rat intestinal fatty acid binding protein) AFDGTWKVDRNENWEKFMEKMGINVVKRKLGAHDNLKLTITQEGNKFTVKESSNFRNIDVVFELGVDFAYSMADGTELTGTWTMEGNKLVGKFKRVDNGKELIAVREISGNELIQTATYEGVEAKRIFKKE
3. L1P12F12: FABP probe, substitutions Y14L L72G Y117V vs SEQ ID NO: 2 (protein, listed as Rattus norvegicus, PEPTIDE (1)...(131) wild-type rat intestinal fatty acid binding protein) AFDGTWKVDRNENLEKFMEKMGINVVKRKLGAHDNLKLTITQEGNKFTVKESSNFRNIDVVFELGVDFAYSGADGTELTGTWTMEGNKLVGKFKRVDNGKELIAVREISGNELIQTVTYEGVEAKRIFKKE
4. L1P17A8: FABP probe, substitutions L38M L72G Y117F vs SEQ ID NO: 2 (protein, listed as Rattus norvegicus, PEPTIDE (1)...(131) wild-type rat intestinal fatty acid binding protein) AFDGTWKVDRNENYEKFMEKMGINVVKRKLGAHDNLKMTITQEGNKFTVKESSNFRNIDVVFELGVDFAYSGADGTELTGTWTMEGNKLVGKFKRVDNGKELIAVREISGNELIQTFTYEGVEAKRIFKKE
5. L1P14A9: FABP probe, substitutions Y14L L72G Y117I vs SEQ ID NO: 2 (protein, listed as Rattus norvegicus, PEPTIDE (1)...(131) wild-type rat intestinal fatty acid binding protein) AFDGTWKVDRNENLEKFMEKMGINVVKRKLGAHDNLKLTITQEGNKFTVKESSNFRNIDVVFELGVDFAYSGADGTELTGTWTMEGNKLVGKFKRVDNGKELIAVREISGNELIQTITYEGVEAKRIFKKE

1.1
1.1
0.5
0.8
0.8

Batch: ΔR/DRAΔ2 LA for all items listed.
1. L1P2F7: FABP probe, substitutions Y14I L72G Y117V vs SEQ ID NO: 2 (protein, listed as Rattus norvegicus, PEPTIDE (1)...(131) wild-type rat intestinal fatty acid binding protein) AFDGTWKVDRNENIEKFMEKMGINVVKRKLGAHDNLKLTITQEGNKFTVKESSNFRNIDVVFELGVDFAYSGADGTELTGTWTMEGNKLVGKFKRVDNGKELIAVREISGNELIQTVTYEGVEAKRIFKKE
2. L1P12G10: FABP probe, substitution Y14I vs SEQ ID NO: 2 (protein, listed as Rattus norvegicus, PEPTIDE (1)...(131) wild-type rat intestinal fatty acid binding protein) AFDGTWKVDRNENIEKFMEKMGINVVKRKLGAHDNLKLTITQEGNKFTVKESSNFRNIDVVFELGVDFAYSLADGTELTGTWTMEGNKLVGKFKRVDNGKELIAVREISGNELIQTYTYEGVEAKRIFKKE

1: 0.6; 2: 0.9
